biological target: AGTR1 (Homo sapiens); construct: host or cells: Pathunter CHO-K1 AGTR1 β-arrestin cell line (CHO-K1); test: DiscoveRx β-arrestin2 recruitment assay (enzyme complementation, Pathunter CHO-K1 AGTR1 β-arrestin cell line); assay type: cell-based; conditions: DiscoveRx β-arrestin2 recruitment
Sequence (P30556 whole entry): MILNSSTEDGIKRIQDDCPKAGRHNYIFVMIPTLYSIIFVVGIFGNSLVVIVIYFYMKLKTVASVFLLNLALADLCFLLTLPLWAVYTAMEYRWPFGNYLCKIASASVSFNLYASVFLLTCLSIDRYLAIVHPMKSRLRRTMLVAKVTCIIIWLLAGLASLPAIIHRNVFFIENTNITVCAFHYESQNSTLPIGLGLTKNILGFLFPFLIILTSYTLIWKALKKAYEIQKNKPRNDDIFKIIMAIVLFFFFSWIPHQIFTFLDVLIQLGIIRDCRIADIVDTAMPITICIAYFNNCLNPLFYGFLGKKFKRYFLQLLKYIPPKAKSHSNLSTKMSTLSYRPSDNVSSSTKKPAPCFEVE
Below: a set of entries, each annotated with reported pEC50.
The scale used: pEC50 is minus the common logarithm of the concentration in molar units.

Example entries and their recorded answers appear below.
{"compound": "CCc1nc2c(C)cc(C)nc2n1Cc1ccc(-c2cc(-c3cn(CCF)nn3)ccc2-c2nnn[nH]2)cc1", "pEC50": 8.27}
{"compound": "CCc1nc2c(C)cc(C)nc2n1Cc1ccc(-c2cc(-c3ccccc3OC)ccc2-c2nn[nH]n2)cc1", "pEC50": 7.84}
{"compound": "CCc1nc2c(C)cc(C)nc2n1Cc1ccc(-c2cc(-n3cc(CCO)nn3)ccc2-c2nnn[nH]2)cc1", "pEC50": 6.62}

Next item in the queue.
The compound identified as CCc1nc2c(C)cc(C)nc2n1Cc1ccc(-c2cc(C3CCCOC3)ccc2-c2nn[nH]n2)cc1 (stereo not shown) registered its pEC50 at 6.54

The origin of these recorded values is patent US12037324B2.
